Could you please report measured STA Human Plasma 37 for the items listed next?
# method-notes: Plasma stability
# Format: in vitro ADME
# Parameters: unit not given here
# test-context: 37° C., 2 μM substrate
# Procedure: At 0.05, 0.5, 1, 2, 3 and 4 hr, […] aliquots of the reaction mixture were transferred to plates containing […] of IS/Q quenching solution. After quenching, the plates were centrifuged at 3000 g for 30 minutes, and 150 μL supernatant was diluted with 150 μL water. Aliquots ([…]) of the diluted supernatant were analyzed on a Thermo Q-Exactive mass spectrometer as described below. Mobile phase A consisted of 0.1% (v/v) formic acid in water. […]
Please respond with just the number, no unit label.

Task item: Which STA Human Plasma 37 value is on record for CC1(C)C2CCC1(C)C(OC(=O)OC[C@H]1O[C@@](C#N)(c3ccc4c(N)ncnn34)[C@H](O)[C@@H]1O)C2 (stereo partly shown) [Compound 71] ?
Reply: 1584

Task item: Item: COC(=O)OC[C@H]1O[C@@](C#N)(c2ccc3c(N)ncnn23)[C@@H]2OC(=O)O[C@@H]21 [Compound 127]
Reply: 12.071

Task item: Next: CC12CCC(C1)C(C)(C)C2OC(=O)OC[C@H]1O[C@@](C#N)(c2ccc3c(N)ncnn23)[C@H](O)[C@@H]1O (mixture of isomers) [Compound 48]
Reply: 1584

Task item: Same thing, different compound: COC(=O)O[C@H]1[C@@H](OC(=O)OC)[C@](C#N)(c2ccc3c(N)ncnn23)O[C@@H]1COC(=O)OC(C)C [Compound 135]
Reply: 96.462

Task item: And for N#C[C@@]1(c2ccc3c(N)ncnn23)O[C@H](COC(=O)OCC2CCCCC2)[C@@H](O)[C@H]1O [Compound 86] ?
Reply: 48.6

Task item: Then what about the compound CCCOC(=O)OC[C@H]1O[C@@](C#N)(c2ccc3c(N)ncnn23)[C@H](O)[C@@H]1O [Compound 8] ?
Reply: 11.698

Task item: Please give the result for N#C[C@@]1(c2ccc3c(N)ncnn23)O[C@H](COC(=O)Oc2ccccc2)[C@@H](O)[C@H]1O [Compound 7] too.
Reply: 6.563
